Cited source: PubChem BioAssay AID2685

# Test Description: qHTS Assay for Lipid Storage Modulators in Drosophila S3 Cells;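 on cell number change: cells counted by Cell Tracker Red CMTPX staining in the red channel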
# Condition: BODIPY lipid droplet fluorescence, 18-24 h, cells fed with added oleic acid; measured here: cell count max response
The whole screen tested about 320,000 compounds, of which about 2,100 (0.66%) were called active. Not shown: some 53% with an inconclusive outcome. What follows is part of a selection rich in actives, with near analogues and random picks from the rest.
// cell number change lookup, one value per entry
Measurement Name: cell number change (%)

[[record]]
compound = "O=C1C(Cl)=C(N2CCOCC2)C(=O)N1c1ccccc1F"
endpoint_result = -18.5

[[record]]
compound = "CC(Cl)C(=O)c1ccc2c(c1)CCN2C(=O)C1CC1 (stereo not drawn)"
endpoint_result = -1.68

[[record]]
compound = "COc1ccc(/C=C/C(=O)NCCc2nc3ccccc3[nH]2)cc1"
endpoint_result = -8.48


###

# Test Description: qHTS Assay for Lipid Storage Modulators in Drosophila S3 Cells
# Condition: BODIPY lipid droplet fluorescence, 18-24 h, cells fed with added oleic acid; series mostly up to 46.1 µM
About 2,100 (0.66%) of roughly 320,000 compounds were called active. Another 53% or so got no clear call; they are omitted. The call rests on the fitted dose curve; in most records, active means well fitted inhibition curve with a large enough effect in the signal ratio, with a control signal flat (not every such curve was filed as active); inconclusive means small, poorly fitted or top-dose-only effect, or effect the other way, or a change in a side signal; inactive means flat fitted curve, though single readings scatter; the % refers to the signal ratio. Shown is part of a subset that was picked to be rich in actives.
Outcomes: active, inactive

[[record]]
compound = "COc1ccc(S(=O)(=O)N2CCCC(C(=O)N3CCOCC3)C2)cc1C (stereo not drawn)"
category = "inactive"

[[record]]
compound = "Cc1ccccc1N(CC(=O)NCc1ccco1)C(=O)CCC(=O)Nc1nccs1"
category = "inactive"

[[record]]
compound = "COc1ccc(-c2nc(CS(=O)CC(=O)NC3CCCCCC3)c(C)o2)cc1 (stereo not drawn)"
category = "inactive"

[[record]]
compound = "Cc1ccc(C)n1NC(=O)c1ccccc1"
category = "inactive"

[[record]]
compound = "COc1cc(CO)c(Br)cc1OCC(=O)Nc1ccccc1C"
category = "inactive"

[[record]]
compound = "Cn1c(=O)c2sccc2n2c(CCCC(=O)N3CCCCC3)nnc12"
category = "active"

[[record]]
compound = "CCOC(=O)N1CCN(S(=O)(=O)N2CCCC(C(=O)NCCc3ccc(OC)c(OC)c3)C2)CC1 (stereo not drawn)"
category = "inactive"

[[record]]
compound = "CS(=O)(=O)N1CCC(C(=O)Nc2ccc(Cl)c(C(F)(F)F)c2)CC1"
category = "inactive"

[[record]]
compound = "COc1ccc(Cn2c(CCC(=O)N3CCN(c4ccccn4)CC3)nc3ncccc3c2=O)cc1"
category = "inactive"

[[record]]
compound = "CCOc1ccc(CCNC(=O)C2CCCN(S(=O)(=O)N3CCOCC3)C2)cc1OCC (stereo not drawn)"
category = "inactive"

[[record]]
compound = "O=C(NCCO)c1cccc(Cl)c1"
category = "active"

[[record]]
compound = "O=C(Nc1ccncc1)C1CCN(S(=O)(=O)c2ccc(Cl)c(C(F)(F)F)c2)CC1"
category = "active"

[[record]]
compound = "Cn1cnnc1SCC(=O)Nc1ccc(F)cc1F"
category = "inactive"


###

# Test Description: qHTS Assay for Lipid Storage Modulators in Drosophila S3 Cells;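 on cell number change: cells counted by Cell Tracker Red CMTPX staining in the red channel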
# Condition: BODIPY lipid droplet fluorescence, 18-24 h, cells fed with added oleic acid; measured here: cell count max response
Among all 320,000 compounds or so, about 2,100 (0.66%) were called active. Inconclusive results (about 53%) are left out. What follows is part of a selection rich in actives, with near analogues and random picks from the rest.
Measurement Name: cell number change (%)

[[record]]
compound = "COc1ccc(CCNC(=O)CSc2c[nH]c3ccccc23)cc1OC"
measurement_name = "cell number change"
unit_label = "%"
endpoint_result = 5.06

[[record]]
compound = "COc1cc(/C=C(/C(=O)c2cccs2)c2nc3ccccc3[nH]2)ccc1O"
measurement_name = "cell number change"
unit_label = "%"
endpoint_result = -19

[[record]]
compound = "CCOC(=O)C1[C@H]2C(=O)N(C(C)c3ccc(OC)cc3)C[C@]23C=C[C@H]1O3 (stereo partly drawn)"
measurement_name = "cell number change"
unit_label = "%"
endpoint_result = -3.61

